Every entry's value here was drawn from PubChem BioAssay (NCI).

Listing: growth of selected compounds
# Tested on: MDA-MB-231 breast
# Procedure details: NCI-60 one-dose screen, 48 h (100 = growth as untreated, 0 = no growth, -100 = all killed)
# Test settings: 10 µM unless noted
Compounds without any hit were thinned out: in the full panel of roughly 83,000, 20% have a hit. Activity calls are given as the source filed them. The calls were made as follows: active = growth percent below 10; inactive = the rest.
Measurement type: growth

Compound: CN(C)CCNC(=O)c1ccc(-c2nc3ccc4[nH]ncc4c3c3c2C2CCC3C2)cc1 (stereo not given)
Assay target: MDA-MB-231 breast
Measurement type: growth
Value observed: 2.4% (active)
//
Compound: O=c1[nH]c(Cc2nc3ccccc3s2)nc2cc(Br)ccc12
Assay target: MDA-MB-231 breast
Measurement type: growth
Value observed: 65.6% (inactive)
//
Compound: CC(C)c1ccc(C(=O)Nc2sc3c(c2C(N)=O)CCC(=O)C3)cc1
Assay target: MDA-MB-231 breast
Measurement type: growth
Value observed: -54.4% (active)
//
Compound: N#Cc1c(-c2ccc(Cl)cc2)nc(NN2C(=O)c3ccccc3C2=O)nc1N1CCOCC1
Assay target: MDA-MB-231 breast
Measurement type: growth
Value observed: 105% (inactive)
//
Compound: COc1ccc(/C=N/C2=C(C#N)C(c3ccccc3)c3ccc4ccccc4c3O2)cc1 (stereo not given)
Assay target: MDA-MB-231 breast
Measurement type: growth
Value observed: 18.7% (inactive)
//
Compound: CC(C)=CCC[C@](C)(O)[C@H]1CC[C@]2(C)[C@@H]1CC[C@@H]1[C@@]3(C)C/C(=C/c4ccco4)C(=O)C(C)(C)[C@@H]3CC[C@]12C
Assay target: MDA-MB-231 breast
Measurement type: growth
Value observed: 101% (inactive)
//
Compound: COc1cc2c(cc1OCCCN1CCN(CCCOc3cc4c(cc3OC)C(=O)N3CCC[C@H]3C=N4)CC1)C=CC(C)(C)O2
Assay target: MDA-MB-231 breast
Measurement type: growth
Value observed: -81.9% (active)
//
Compound: COc1ccc(/C=C(\C#N)n2nnc3cc(F)c(F)cc32)cc1
Assay target: MDA-MB-231 breast
Measurement type: growth
Value observed: 64.9% (inactive)
//
Compound: CCSC(SCC)c1ccc(Cl)cc1
Assay target: MDA-MB-231 breast
Measurement type: growth
Value observed: 107% (inactive)
//
Compound: Cc1cccc(/C=C2\CN(C(=O)OC(C)(C)C)C/C(=C\c3cccc(C)c3)C2=O)c1
Assay target: MDA-MB-231 breast
Measurement type: growth
Value observed: 98.8% (inactive)
//
Compound: Cc1[nH]c(=O)[nH]c(=O)c1Br
Assay target: MDA-MB-231 breast
Measurement type: growth
Value observed: 99.3% (inactive)
//
Compound: O=C(Nc1ccc(Oc2cccc(Cl)c2)c(Cl)c1)c1cccnc1
Assay target: MDA-MB-231 breast
Measurement type: growth
Value observed: 59% (inactive)
//
Compound: c1csc(-c2ccc(CNc3c4ccccc4nc4ccccc34)cc2)c1
Assay target: MDA-MB-231 breast
Measurement type: growth
Value observed: 38.3% (inactive)
//
Compound: O=C(CSc1nc2sc3c(c2c(=O)n1-c1ccccc1)CCCCC3)N/N=C/c1cccc([N+](=O)[O-])c1
Assay target: MDA-MB-231 breast
Measurement type: growth
Value observed: 51.1% (inactive)
//
Compound: O=C(N(c1ccccc1)c1ccccc1)n1cc(I)c2nc(Cl)nc(Cl)c21
Assay target: MDA-MB-231 breast
Measurement type: growth
Value observed: 67.6% (inactive)
//
Compound: CCSc1nc2scc(C)c2c(=O)[nH]1
Assay target: MDA-MB-231 breast
Measurement type: growth
Value observed: 104% (inactive)
//
Compound: COc1cc(C2c3cc(OC(C)=O)c(OC)cc3CC3C(=O)OCC32)ccc1OC(C)=O (stereo not given)
Assay target: MDA-MB-231 breast
Measurement type: growth
Value observed: 105% (inactive)
//
Compound: N#Cc1nc(-c2ccc(F)cc2)oc1S(=O)(=O)N1CCOCC1
Assay target: MDA-MB-231 breast
Measurement type: growth
Value observed: 83.2% (inactive)
//
Compound: CCOCCNC1=C(Cl)C(=O)c2ccccc2C1=O
Assay target: MDA-MB-231 breast
Measurement type: growth
Value observed: 116% (inactive)
//
Compound: N#Cc1nc(-c2ccccc2)oc1S(=O)(=O)N1CCN(c2ccccc2)CC1
Assay target: MDA-MB-231 breast
Measurement type: growth
Value observed: 105% (inactive)
//
Compound: COc1ccc2c(c1)N(CCO)C1=C(C(=O)OC1)C2c1cccc(F)c1 (stereo not given)
Assay target: MDA-MB-231 breast
Measurement type: growth
Value observed: 36% (inactive)
//
Compound: CC/C=C\C[C@H](O)C/C=C1/C(=O)C=C[C@@H]1C/C=C\CCCC(=O)N(C)C
Assay target: MDA-MB-231 breast
Measurement type: growth
Value observed: 18.3% (inactive)
//
Compound: CN1CCN(C(=O)c2ccc(NC(=O)c3cc4c(nn3)NCCN4Cc3cc(Cl)ccc3Cl)cc2)CC1
Assay target: MDA-MB-231 breast
Measurement type: growth
Value observed: 82.2% (inactive)
//
Compound: CCOC(=O)c1cc(C(=O)c2cc(OC)c(OC)c(OC)c2)n2ncccc12
Assay target: MDA-MB-231 breast
Measurement type: growth
Value observed: 31.2% (inactive)
//
Compound: Nc1c(C(=O)Nc2ccccc2C(F)(F)F)sc2nc3c(cc12)CCC3
Assay target: MDA-MB-231 breast
Measurement type: growth
Value observed: 92% (inactive)
//
Compound: O=C(Nc1cccc2ccccc12)NC1CC1
Assay target: MDA-MB-231 breast
Measurement type: growth
Value observed: 113% (inactive)
//
Compound: N#Cc1ccc(O)c(C2=NCC(c3cccc(Oc4ccccc4)c3)O2)c1 (stereo not given)
Assay target: MDA-MB-231 breast
Measurement type: growth
Value observed: 24.6% (inactive)
//
Compound: C=CCOC(=O)Nc1cccn([C@H](Cc2ccccc2)C(=O)NCCC(C)C)c1=O
Assay target: MDA-MB-231 breast
Measurement type: growth
Value observed: 101% (inactive)
//
Compound: COc1ccccc1NC(=O)N=Nc1c(O)[nH]c2ccccc12
Assay target: MDA-MB-231 breast
Measurement type: growth
Value observed: 82.7% (inactive)
//
Compound: Oc1c(Br)cc(Br)c2ccc(Cn3cc(-c4ccc(C(F)(F)F)cc4)nn3)nc12
Assay target: MDA-MB-231 breast
Measurement type: growth
Value observed: 96.3% (inactive)
//
Compound: N=C(N)c1ccc(-c2ccc(-c3ccc(Cl)c(Cl)c3)s2)nc1
Assay target: MDA-MB-231 breast
Measurement type: growth
Value observed: -27.1% (active)
//
Compound: CCOC(=O)c1cc2c(n1Cc1cc(OC)c(OC)c(OC)c1)-c1nc(N)sc1CCC2
Assay target: MDA-MB-231 breast
Measurement type: growth
Value observed: 51.6% (inactive)
//
Compound: COc1ccc(-c2noc(C(=O)O)c2-c2cc(OC)c(OC)c(OC)c2)cc1
Assay target: MDA-MB-231 breast
Measurement type: growth
Value observed: 57.1% (inactive)
//
Compound: C1CCC([PH+](C2CCCCC2)C2CCCCC2[PH+](C2CCCCC2)C2CCCCC2)CC1.[Au].[CH-]1CCCCC1C1CCCC[N-]1 (stereo not given)
Assay target: MDA-MB-231 breast
Measurement type: growth
Value observed: -27.6% (active)
//
Compound: Cn1cc(-c2csc(-c3c[nH]c4ccccc34)n2)c2cnccc21
Assay target: MDA-MB-231 breast
Measurement type: growth
Value observed: -37.4% (active)
//
Compound: Clc1ccc2c(NC3CCC(N4CCOCC4)CC3)ccnc2c1 (stereo not given)
Assay target: MDA-MB-231 breast
Measurement type: growth
Value observed: 81.7% (inactive)
//
Compound: Cn1ccnc1C(=O)/C=C/c1ccc(C(=O)Nc2ccc(Cl)cc2)cc1
Assay target: MDA-MB-231 breast
Measurement type: growth
Value observed: 1.85% (active)
//
Compound: c1ccc([P+](c2ccccc2)(c2ccccc2)c2ccc3c4ccc([P+](c5ccccc5)(c5ccccc5)c5ccccc5)c5cccc(c6cccc2c63)c54)cc1
Assay target: MDA-MB-231 breast
Measurement type: growth
Value observed: 9.37% (active)
//
Compound: CCCC/C=C/[C@@H]1C[C@H]1CCO
Assay target: MDA-MB-231 breast
Measurement type: growth
Value observed: 99.2% (inactive)
//
Compound: C=C1C(=O)O[C@H]2[C@H]1CC/C(Cn1cc(-c3ccccc3)nn1)=C\CC[C@@]1(C)O[C@@H]21
Assay target: MDA-MB-231 breast
Measurement type: growth
Value observed: -13% (active)

----------
# System: K-562 leukemia
# Procedure details: NCI-60 one-dose screen, 48 h
# Test settings: 10 µM unless noted
The panel holds about 83,000 compounds, 20% with a hit somewhere; the sample as a whole holds those more often. Activity calls are given as the source filed them. Rule for the calls: active = growth percent below 10; inactive = the rest.
Labels: active, inactive

Compound: CS(=O)(=O)Nc1cncc(-c2ccc3ncnc(Nc4cncc(Cl)c4)c3c2)c1
Class assignment: inactive

Compound: C=CC(=O)N1CCN(c2cccc(Oc3nccc(Nc4nnc(-c5ccc(Br)cc5)s4)n3)c2)CC1
Class assignment: inactive

Compound: CC1CCN(CCOc2ccc(CNc3ccc4nc(CCC5CCCCC5)[nH]c4c3)cc2)CC1
Class assignment: active

Compound: Fc1cnccc1C1CC(c2ccc(N3CCNCC3)cc2)=NN1 (centres undefined)
Class assignment: inactive

Compound: COC(=O)C1Cc2ccccc2CN1C(=O)c1ccc2c(c1)Cc1ccccc1-2 (centres undefined)
Class assignment: inactive

Compound: CC/C(=C(/c1ccc(Cl)cc1)c1ccc(OCCN2CCCCC2)cc1)c1ccc(OC)cc1
Class assignment: active

Compound: COc1ccc(/C=C/C(=O)c2ccc(Nc3ccnc4cc(Cl)ccc34)cc2)cc1
Class assignment: inactive

Compound: COc1ccc(C(=O)/C=C/c2c(C(F)(F)F)nc3ccccn23)cc1OC
Class assignment: inactive

Compound: COc1ccc(C/C(C)=C(\c2ccc(Cl)cc2)c2ccc(OCCN3CCCCC3)cc2)cc1
Class assignment: inactive

Compound: C#CCOc1ccc2ncnc(Nc3ccc(NC(=O)C=C)cc3)c2c1
Class assignment: active

Compound: Cc1c[n+](Cc2ccc3ccccc3c2)cn1Cc1ccc2ccccc2c1
Class assignment: active

Compound: CC(C)c1ccc(Cc2cnc(NC(=O)c3cc(Br)cs3)s2)cc1
Class assignment: inactive

Compound: CCCCCN1C(=O)/C(=c2\sc3n(c2=O)C2C(NN=3)N(CC)C(=O)N2CC)c2ccccc21 (centres undefined)
Class assignment: active

Compound: Nc1c(C(=O)Nc2ccccc2F)sc2nc3c(cc12)CCCC3
Class assignment: inactive

Compound: N#Cc1nc(-c2ccc(F)cc2)oc1S(=O)(=O)N1CCCCC1
Class assignment: active

Compound: C=C1CC[C@@H]2[C@](C)(COC(C)=O)[C@H](OC(C)=O)CC[C@@]2(C)[C@@H]1CC(Nc1ccc(S(=O)(=O)Nc2ncccn2)cc1)C1=CCOC1=O (some centres undefined)
Class assignment: active

Compound: CC(=O)Oc1ccc(N2C(=O)C(Cl)=C(Nc3cccc(C(F)(F)F)c3)C2=O)cc1
Class assignment: inactive

Compound: C=C(C)[C@@H]1CC[C@]2(C(=O)O)CC[C@]3(C)[C@H](CC[C@@H]4[C@@]5(C)CCC(NC(=O)c6cccc(OC(C)=O)c6OC(C)=O)C(C)(C)[C@@H]5CC[C@]43C)[C@@H]12 (some centres undefined)
Class assignment: inactive

Compound: Cc1[nH]c(=O)[nH]c(=O)c1Br
Class assignment: inactive

Compound: Cc1c2cnccc2c(C)c2c1c1cc(C#N)ccc1n2C
Class assignment: active

Compound: CCOC(=O)c1cc2c(n1Cc1cc(OC)c(OC)c(OC)c1)-c1nc(N)sc1CCC2
Class assignment: inactive

Compound: Cn1cc(-c2csc(-c3cn(C(=O)OC(C)(C)C)c4ccc(Br)cc34)n2)c2ccnc(Cl)c21
Class assignment: inactive

Compound: Cc1cc(S(=O)(=O)/N=C(\N)n2nc(C)c(C)c2C)c(SCc2ccccc2)cc1Cl
Class assignment: inactive

Compound: COC(=O)Nc1nc2ccc(S(=O)c3ccccc3)cc2[nH]1 (centres undefined)
Class assignment: inactive

Compound: O=C(Nc1nc(-c2ccc(Cl)cc2)nc2c1sc(=S)n2-c1ccccc1)C(F)(F)F
Class assignment: inactive

Compound: CSc1nc2ccccc2cc1/C=C1/C=C(c2ccccc2)NC1=O
Class assignment: inactive

Compound: COc1ccc(Nc2nc(-c3cc(O)c(C)c(C)c3O)cs2)cc1
Class assignment: inactive

Compound: Clc1cc(Cl)c(Cl)c(-c2nnc(SCc3ccncc3Br)o2)c1
Class assignment: inactive

Compound: COc1ccc(CNc2c3ccccc3nc3ccccc23)cc1
Class assignment: active

Compound: O=C(COc1ccc(-c2nc3cc(Cl)c(Cl)cc3[nH]2)cc1)N=Nc1c(O)[nH]c2ccc(Cl)cc12
Class assignment: active

Compound: COC(=O)[C@]12CCC(C)(C)C[C@H]1[C@H]1/C(=N/OCCc3nn[nH]n3)C[C@@H]3[C@@]4(C)CC[C@H](OC(C)=O)C(C)(C)[C@@H]4CC[C@@]3(C)[C@]1(C)CC2
Class assignment: inactive

Compound: Cc1ccc(/C=C2\COc3ccc(O)cc3C2=O)cc1
Class assignment: inactive

Compound: CCN(CC)S(=O)(=O)c1ccc(S(=O)(=O)N2CCC[C@@H](C(=O)N3CCN(c4nc(C(C)C)no4)CC3)C2)cc1
Class assignment: inactive

Compound: CCn1c(SCC(=O)N/N=C(\C)c2ccc(Cl)cc2)nc2c1c(=O)n(C)c(=O)n2C
Class assignment: inactive

Compound: Cc1c(O)cc(-c2cnc(Nc3ccccc3)s2)c(O)c1C
Class assignment: inactive

Compound: CC1CN(S(=O)(=O)c2oc(-c3ccc(Cl)cc3)nc2C#N)CC(C)O1 (centres undefined)
Class assignment: active

Compound: COc1cc(-c2cncn2-c2ccc(-c3nc4ccc(F)cc4s3)cc2)ccc1F
Class assignment: inactive

Compound: O=C1Nc2ccc(C(=O)O)cc2/C1=N/c1nnc(Sc2ccccc2)s1
Class assignment: inactive

Compound: O=C(NCCNc1nccc(Nc2ccc(S(=O)(=O)Nc3ccccn3)cc2)n1)c1cccc([N+](=O)[O-])c1
Class assignment: inactive
